molecular target: human OX2R (Homo sapiens, UniProt O43614); construct: expressed in transfected cells; host or cells: CHO; cells from GNF, San Diego; assay: FLIPR orexin A-stimulated calcium accumulation, human OX2R; assay type: cell-based; settings: CHO cells, antagonist incubation 4 h
Sequence (O43614 whole entry): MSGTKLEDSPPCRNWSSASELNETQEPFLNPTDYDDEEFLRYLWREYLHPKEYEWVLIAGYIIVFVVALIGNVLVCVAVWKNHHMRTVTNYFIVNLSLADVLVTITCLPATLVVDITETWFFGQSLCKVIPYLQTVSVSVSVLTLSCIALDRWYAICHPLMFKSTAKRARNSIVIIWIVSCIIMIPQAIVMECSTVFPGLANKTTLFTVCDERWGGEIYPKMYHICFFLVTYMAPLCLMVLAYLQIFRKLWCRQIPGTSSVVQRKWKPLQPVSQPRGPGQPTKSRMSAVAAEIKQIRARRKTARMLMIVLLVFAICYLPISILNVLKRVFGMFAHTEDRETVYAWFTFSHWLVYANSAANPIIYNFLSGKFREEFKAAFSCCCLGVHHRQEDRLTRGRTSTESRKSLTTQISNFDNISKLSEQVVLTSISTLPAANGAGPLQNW
Measured Ki values are reported for all entries that follow.
Observation type: Ki (nM)

[[record]]
molecule = "Cc1ccc(-c2ncccn2)c(C(=O)N2C[C@H](COc3ccc(F)cn3)CC[C@H]2C)c1"
observation_type = "Ki"
endpoint_result = 0.17

[[record]]
molecule = "COc1ccnc(N2CCC3(CCCN(Cc4c[nH]c5ccccc45)C3=O)CC2)n1"
observation_type = "Ki"
endpoint_result = 20.9

[[record]]
molecule = "Cc1nc(C(=O)N2CCCC[C@H]2CNC(=O)c2cccc3occc23)c(-c2ccc(F)cc2)s1"
observation_type = "Ki"
endpoint_result = 0.151

[[record]]
molecule = "CNC(=O)[C@@H](c1ccccc1)N1CCc2cc(OC)c(OC)cc2[C@@H]1CCc1ccc(C(F)(F)F)cc1"
observation_type = "Ki"
endpoint_result = 0.813

